Consider the following compounds; for each one, report its GI50.
Test system: SF-539 CNS
assay_remarks: NCI tumour cell line growth inhibition, 48 h

// below: answered compounds
>  <compound>
COc1cc(OC)c(/C=C/C(=O)c2c(O)cc(OC)c(C3CCN(C)CC3)c2OC)c(OC)c1

>  <quantity_measured>
GI50

>  <observed_value>
1.69 µM

$$$$
>  <compound>
Cn1cc(-c2ccc3nnc(C(F)(F)c4ccc5ncccc5c4)n3n2)cn1

>  <quantity_measured>
GI50

>  <observed_value>
47.5 µM

$$$$
>  <compound>
O=C1c2ccccc2-c2ccccc2C1(Cl)Cl

>  <quantity_measured>
GI50

>  <observed_value>
1.71 µM

$$$$
>  <compound>
C1C[S][Ge]2([S]CCS1)[S]CCSCC[S]2

>  <quantity_measured>
GI50

>  <observed_value>
> 100 µM

$$$$
>  <compound>
CC/C(=C(/CC)c1ccc(O)cc1)c1ccc(O)cc1

>  <quantity_measured>
GI50

>  <observed_value>
5.84 µM

$$$$
>  <compound>
O=C(NC(Cc1ccccc1)C(=O)CCl)OCc1ccccc1 (stereo not drawn)

>  <quantity_measured>
GI50

>  <observed_value>
3 µM

$$$$

Each compound below has a recorded value; state its GI50.
1. CCCCCCn1c2c(c3c(O)cccc31)C(=O)c1ccccc1-2
2. Cc1ccnc(NC(c2ccccc2)c2ccc3cccnc3c2O)c1 (stereo not drawn)
3. COc1cc(-c2ccc(=O)oc2C#Cc2ccccc2)cc(OC)c1OC
4. Nc1nc(Cl)nc2c1ncn2C1OC(CO)C(O)C1O (stereo not drawn)

["18 µM", "3.35 µM", "12.7 µM", "> 90.1 µM"]
